- Test system: Calu-6 cells
- test_details: Calu-6 (Kras Q61K) antiproliferative activity experiment (CellTiterGlo)
- Type: cell-based, human
- condition_set: Homo sapiens, Calu-6, 72 h, cultured three days
test_readout: IC50
Returns: string containing the numeric result and its unit.

Please review the following examples before continuing.
Cc1cccc([C@@H](CO)NC(=O)[C@@H](C)N2Cc3ccc(-c4nc(NC5CCOCC5)ncc4Cl)cc3S2(=O)=O)c1 [Compound 7]
210 nM
COc1cc(F)cc([C@@H](CO)NC(=O)CN2Cc3ccc(-c4nc(NC5CCOCC5)ncc4Cl)cc3S2(=O)=O)c1 [Compound 10]
253 nM
[2H]C1([2H])CC(Nc2ncc(Cl)c(-c3ccc4c(c3)S(=O)(=O)N([C@H](C)C(=O)N[C@H](CO)c3cc(F)cc(OC)c3)C4)n2)CC([2H])([2H])O1 [Compound 9]
222 nM
C[C@H](C(=O)N[C@H](CO)c1cc(F)cc(Cl)c1)N1Cc2ccc(-c3nc(NC4CCOCC4)ncc3Cl)cc2S1(=O)=O [Compound 5]
222 nM
COc1cc(F)cc([C@@H](CO)NC(=O)[C@@H](C)N2Cc3ccc(-c4nc(NC5CCOCC5)ncc4Br)cc3S2(=O)=O)c1 [Compound 3]
300 nM
COc1cc(F)cc([C@@H](CO)NC(=O)[C@@H](C)N2Cc3ccc(-c4nc(N[C@@H]5CCOC[C@H]5F)ncc4Cl)cc3S2(=O)=O)c1 [Compound 2]
222 nM
C[C@H](C(=O)N[C@H](CO)c1cccc(N(C)C)n1)N1Cc2ccc(-c3nc(NC4CCOCC4)ncc3Cl)cc2S1(=O)=O [Compound 8]
313 nM

Prompt line: Please give the documented IC50 of COc1cc(F)cc([C@@H](C)NC(=O)[C@@H](CO)N2Cc3ccc(-c4nc(NC5CCOCC5)ncc4Cl)cc3S2(=O)=O)c1 [Compound 6]
Response line: 508 nM
